- subject-of-test: human CB1 receptor (Homo sapiens, UniProt P21554)
- Construct: host or cells: CHO-K1 stably expressing CB1, apoaequorin and Gα16
- Sequence (P21554 whole entry): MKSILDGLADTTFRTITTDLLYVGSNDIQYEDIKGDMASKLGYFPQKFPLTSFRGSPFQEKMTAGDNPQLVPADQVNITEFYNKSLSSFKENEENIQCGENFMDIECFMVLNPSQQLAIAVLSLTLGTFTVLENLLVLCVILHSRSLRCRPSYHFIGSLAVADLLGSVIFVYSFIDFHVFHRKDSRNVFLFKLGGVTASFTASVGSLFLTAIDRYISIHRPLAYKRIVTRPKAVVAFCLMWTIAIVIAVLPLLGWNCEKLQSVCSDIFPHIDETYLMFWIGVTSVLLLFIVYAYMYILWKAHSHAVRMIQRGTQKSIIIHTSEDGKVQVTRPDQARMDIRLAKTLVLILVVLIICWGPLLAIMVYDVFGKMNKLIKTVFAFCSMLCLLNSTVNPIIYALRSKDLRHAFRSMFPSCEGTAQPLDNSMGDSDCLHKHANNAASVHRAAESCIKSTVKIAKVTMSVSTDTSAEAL
- test-name: AequoScreen intracellular calcium release assay, CHO-K1 cells stably expressing CB1
- Type: cell-based
- measurement-parameters: CB1 receptor Potency EC50, normalized to median EC50 of JWH-018; n ≥ 3 (JWH-030 n = 2)
pEC50: −log10 of the molar value.

{"columns": ["compound", "subject-of-test", "pEC50"],
 "data": [
  ["O=C(N/N=C1\\C(=O)N(CCCCCF)c2ccccc21)c1ccccc1 [5F-BZO-POXIZID]", "human CB1 receptor (Homo sapiens, UniProt P21554)", 6.71],
  ["COC(=O)C(NC(=O)c1cn(CC2CCCCC2)c2ccccc12)C(C)(C)C (stereo not drawn) [MDMB-CHMICA]", "human CB1 receptor (Homo sapiens, UniProt P21554)", 8.51],
  ["COC(=O)C(NC(=O)c1nn(CC2CCCCC2)c2ccccc12)C(C)(C)C (stereo not drawn) [MDMB-[…]]", "human CB1 receptor (Homo sapiens, UniProt P21554)", 8.85],
  ["CC1(C)C(C(=O)c2cn(CCCCCF)c3ccccc23)C1(C)C [XLR-11]", "human CB1 receptor (Homo sapiens, UniProt P21554)", 6.59],
  ["CCCCCn1cc(C(=O)C2C(C)(C)C2(C)C)c2ccccc21 [UR-144]", "human CB1 receptor (Homo sapiens, UniProt P21554)", 6.38],
  ["O=C(NC12CC3CC(CC(C3)C1)C2)c1nn(CCCCCF)c2ccccc12 [5F-APINACA]", "human CB1 receptor (Homo sapiens, UniProt P21554)", 7.78],
  ["C=CCCCN1C(=O)/C(=N\\NC(=O)c2ccccc2)c2ccccc21 [BZO-4en-POXIZID]", "human CB1 receptor (Homo sapiens, UniProt P21554)", 5.77],
  ["CCCCCN1C(=O)/C(=N\\NC(=O)c2ccccc2)c2ccccc21 [BZO-POXIZID]", "human CB1 receptor (Homo sapiens, UniProt P21554)", 6.46],
  ["CCCCCCn1nc(C(=O)NC(C(N)=O)C(C)(C)C)c2ccccc21 (stereo not drawn) [ADB-HEXINACA]", "human CB1 receptor (Homo sapiens, UniProt P21554)", 7.40],
  ["CCCCCn1cc(C(=O)c2cccc3ccccc23)c2ccccc21 [JWH-018]", "human CB1 receptor (Homo sapiens, UniProt P21554)", 7.46],
  ["COC(=O)C(NC(=O)c1nn(CCCCCF)c2ccccc12)C(C)(C)C (stereo not drawn) [5F-MDMB-PINACA]", "human CB1 receptor (Homo sapiens, UniProt P21554)", 8.05],
  ["CCCCCn1ccc(C(=O)c2cccc3ccccc23)c1 [JWH-030]", "human CB1 receptor (Homo sapiens, UniProt P21554)", 6.54]
]}

* * *

- subject-of-test: KV7.1/KCNE1 (Homo sapiens, UniProt P51787)
- test-name: Automated patch-clamp (APC, population patch), CHO cells stably expressing human KV7.1/KCNE1
- Format: cell-based
- measurement-parameters: APC, best fit; read-out: KV7.1/KCNE1 channel Potency IC50 (Gmax reduction)
Entries and their IC50 values follow.
readout-type: IC50 (µM)

{"columns": ["compound", "readout-type", "test-result"],
 "data": [
  ["CC(C)[C@H](NC(=O)c1nn(Cc2ccc(F)cc2)c2ccccc12)C(N)=O [AB-FUBINACA]", "IC50", 40.8],
  ["O=C(c1cccc2ccccc12)c1nn(CCCCCF)c2ccccc12 [THJ-2201]", "IC50", 4.7],
  ["CC(C)[C@H](NC(=O)c1cn(CC2CCCCC2)c2ccccc12)C(N)=O [AB-CHMICA]", "IC50", 16.2],
  ["CC(C)(C)C(NC(=O)c1cn(CC2CCCCC2)c2ccccc12)C(N)=O (centres unmarked) [ADB-CHMICA]", "IC50", 13.4],
  ["CCCCCCN1C(=O)C(=NNC(=O)c2ccccc2)c2ccccc21 [BZO-HEXOXIZID]", "IC50", 3]
]}

* * *

- subject-of-test: KV7.1/KCNE1 (Homo sapiens, UniProt P51787)
- test-name: Automated patch-clamp (APC, population patch), CHO cells stably expressing human KV7.1/KCNE1
- Format: cell-based
- measurement-parameters: * Greatest efficacy achieved with a concentration between 10 and 30 µM (no fit)
Rule: Yes for KV7.1/KCNE1 channel Efficacy (max reduction in Gmax) Gmin, marked * not less than 0.9, No for anything less.

{"columns": ["compound", "subject-of-test", "assigned-category"],
 "data": [
  ["CCCCCn1cc(C(=O)c2cccc3ccccc23)c2ccccc21", "KV7.1/KCNE1 (Homo sapiens, UniProt P51787)", "Yes"],
  ["CC(C)[C@H](NC(=O)c1nn(CC2CCCCC2)c2ccccc12)C(N)=O", "KV7.1/KCNE1 (Homo sapiens, UniProt P51787)", "No"],
  ["Cc1ccc(S(=O)(=O)n2nc(C(=O)NC(C)(C)c3ccccc3)c3ccccc32)cc1", "KV7.1/KCNE1 (Homo sapiens, UniProt P51787)", "Yes"],
  ["CCCCn1nc(C(=O)NC(C(=O)OC)C(C)(C)C)c2cc(Br)ccc21 (stereo not shown)", "KV7.1/KCNE1 (Homo sapiens, UniProt P51787)", "No"],
  ["COC(=O)C(NC(=O)c1cn(CC2CCCCC2)c2ccccc12)C(C)(C)C (stereo not shown)", "KV7.1/KCNE1 (Homo sapiens, UniProt P51787)", "No"],
  ["COC(=O)[C@@H](NC(=O)c1n[nH]c2ccc(Br)cc12)C(C)(C)C", "KV7.1/KCNE1 (Homo sapiens, UniProt P51787)", "No"],
  ["CC(C)(C)[C@H](NC(=O)c1nn(Cc2ccc(F)cc2)c2ccccc12)C(N)=O", "KV7.1/KCNE1 (Homo sapiens, UniProt P51787)", "No"],
  ["CC1(C)C(C(=O)c2cn(CCCCCF)c3ccccc23)C1(C)C", "KV7.1/KCNE1 (Homo sapiens, UniProt P51787)", "No"],
  ["N#CCCCCn1nc(C(=O)NCc2ccccc2)c2ccccc21", "KV7.1/KCNE1 (Homo sapiens, UniProt P51787)", "No"],
  ["O=C(N/N=C1\\C(=O)N(CCCCCF)c2ccccc21)c1ccccc1", "KV7.1/KCNE1 (Homo sapiens, UniProt P51787)", "No"],
  ["C=CCCCn1nc(C(=O)NC(C(N)=O)C(C)(C)C)c2ccccc21 (stereo not shown)", "KV7.1/KCNE1 (Homo sapiens, UniProt P51787)", "Yes"],
  ["CC(C)(C)[C@H](NC(=O)c1nn(CC2CCCCC2)c2ccccc12)C(N)=O", "KV7.1/KCNE1 (Homo sapiens, UniProt P51787)", "Yes"],
  ["COC(=O)[C@@H](NC(=O)c1nn(Cc2ccc(F)cc2)c2ccccc12)C(C)(C)C", "KV7.1/KCNE1 (Homo sapiens, UniProt P51787)", "No"],
  ["CCCCn1nc(C(=O)NC(C(N)=O)C(C)(C)C)c2cc(Br)ccc21 (stereo not shown)", "KV7.1/KCNE1 (Homo sapiens, UniProt P51787)", "No"],
  ["CCCCCn1cc(C(=O)c2ccc(C)c3ccccc23)c2ccccc21", "KV7.1/KCNE1 (Homo sapiens, UniProt P51787)", "No"],
  ["CCCCCN1C(=O)/C(=N\\NC(=O)c2ccccc2)c2ccccc21", "KV7.1/KCNE1 (Homo sapiens, UniProt P51787)", "No"]
]}

* * *

Entries and their hERG channel Efficacy (max reduction in Gmax) Gmin values follow.
- subject-of-test: hERG (KV11.1) (Homo sapiens)
- Sequence (Q12809 whole entry): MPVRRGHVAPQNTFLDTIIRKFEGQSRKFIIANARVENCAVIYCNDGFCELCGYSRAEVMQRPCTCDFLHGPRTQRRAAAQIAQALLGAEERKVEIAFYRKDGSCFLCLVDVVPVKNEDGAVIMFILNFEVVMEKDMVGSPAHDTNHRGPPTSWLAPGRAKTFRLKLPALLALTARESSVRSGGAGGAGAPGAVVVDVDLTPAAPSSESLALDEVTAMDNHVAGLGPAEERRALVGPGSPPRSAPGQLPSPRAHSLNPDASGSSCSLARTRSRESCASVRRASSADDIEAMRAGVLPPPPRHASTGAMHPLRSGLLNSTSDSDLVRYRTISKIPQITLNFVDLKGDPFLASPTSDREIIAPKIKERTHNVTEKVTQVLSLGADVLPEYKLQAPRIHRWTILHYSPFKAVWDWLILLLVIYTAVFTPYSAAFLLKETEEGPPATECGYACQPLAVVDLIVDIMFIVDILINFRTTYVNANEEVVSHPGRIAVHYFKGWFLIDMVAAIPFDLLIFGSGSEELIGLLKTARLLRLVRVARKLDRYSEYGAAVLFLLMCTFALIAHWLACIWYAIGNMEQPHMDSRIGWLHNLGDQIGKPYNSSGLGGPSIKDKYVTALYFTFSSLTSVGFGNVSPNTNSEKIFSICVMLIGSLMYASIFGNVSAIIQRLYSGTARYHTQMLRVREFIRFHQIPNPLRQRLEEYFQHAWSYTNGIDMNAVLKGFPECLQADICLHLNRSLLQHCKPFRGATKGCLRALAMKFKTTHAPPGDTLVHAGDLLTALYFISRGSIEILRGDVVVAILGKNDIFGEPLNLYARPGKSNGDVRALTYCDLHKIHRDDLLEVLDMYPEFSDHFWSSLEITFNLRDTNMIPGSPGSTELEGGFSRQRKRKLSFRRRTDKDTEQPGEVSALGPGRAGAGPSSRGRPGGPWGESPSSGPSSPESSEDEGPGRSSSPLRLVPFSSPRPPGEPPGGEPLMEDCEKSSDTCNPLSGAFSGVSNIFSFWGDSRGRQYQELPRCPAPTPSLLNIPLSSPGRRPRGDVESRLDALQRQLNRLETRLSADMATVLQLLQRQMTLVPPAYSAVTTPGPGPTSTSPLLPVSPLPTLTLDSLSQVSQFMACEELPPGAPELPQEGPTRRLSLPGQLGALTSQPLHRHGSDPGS
- test-name: Automated planar patch-clamp (APC, QPatch II 48), voltage-ladder protocol, CHO cells stably expressing human hERG
- measurement-parameters: best fit; 1 = no reduction of Gmax, 0 = complete reduction; APC, 22 °C
readout-type: hERG channel Efficacy (max reduction in Gmax) Gmin

{"columns": ["compound", "test-result"],
 "data": [
  ["CC(C)(C)[C@H](NC(=O)c1nn(CC2CCCCC2)c2ccccc12)C(N)=O", 0.13],
  ["COC(=O)C(NC(=O)c1cn(CC2CCCCC2)c2ccccc12)C(C)(C)C (centres unmarked)", 0.55],
  ["COC(=O)[C@@H](NC(=O)c1cn(CCCCF)c2ccccc12)C(C)(C)C", 0.35],
  ["CC1(C)C(C(=O)c2cn(CCCCCF)c3ccccc23)C1(C)C", 0.54],
  ["N#CCCCCn1nc(C(=O)NCc2ccccc2)c2ccccc21", 0.00]
]}

* * *

Entries and their pEC50 values follow.
- subject-of-test: human CB1 receptor (Homo sapiens, UniProt P21554)
- Construct: host or cells: CHO-K1 stably expressing CB1, apoaequorin and Gα16
- test-name: AequoScreen intracellular calcium release assay, CHO-K1 cells stably expressing CB1
- Type: cell-based
- measurement-parameters: normalized to median EC50 of JWH-018; n ≥ 3 (JWH-030 n = 2); read-out: CB1 receptor Potency EC50
pEC50: −log10 of the molar value.

{"columns": ["chem-smiles", "pEC50"],
 "data": [
  ["CC(C)[C@H](NC(=O)c1nn(Cc2ccc(F)cc2)c2ccccc12)C(N)=O", 8.05],
  ["CCCCCn1nc(C(=O)NC23CC4CC(CC(C4)C2)C3)c2ccccc21", 7.52],
  ["CCCCCn1cc(C(=O)c2ccc(C)c3ccccc23)c2ccccc21", 8.08],
  ["O=C(c1cccc2ccccc12)c1cn(CCCCCF)c2ccccc12", 7.59],
  ["CCCCCn1cc(C(=O)c2ccc(CC)c3ccccc23)c2ccccc21", 8.00],
  ["CC(C)(C)[C@H](NC(=O)c1nn(Cc2ccc(F)cc2)c2ccccc12)C(N)=O", 8.30],
  ["COC(=O)[C@@H](NC(=O)c1cn(CC2CCCCC2)c2ccccc12)C(C)C", 8.06]
]}
